Listing of entries alongside the reported solubility kinetic.
conditions: buffer; pH 7.4; 200.0 µM

Solved entries:
>  <molecule>
Cc1ccc(CN2C(=O)CSC2c2cccnc2)cc1 (stereo not drawn)

>  <recorded_value>
> 42.7 µg/mL

$$$$
>  <molecule>
C/C(=C\c1cccc(Cl)c1)C(=O)c1c(C)cc(C)[nH]c1=O

>  <recorded_value>
> 45.3 µg/mL

$$$$
>  <molecule>
O=C(Cn1c(=O)cnc2ccccc21)NC1CCC(O)CC1 (stereo not drawn)

>  <recorded_value>
> 45.2 µg/mL

$$$$
>  <molecule>
CCCN(CC1CC1)CC(O)c1ccccc1.O=C(O)C(=O)O (stereo not drawn)

>  <recorded_value>
> 48.5 µg/mL

$$$$
>  <molecule>
N#C/C(=C\c1ccc[nH]1)C(=O)NCC1CCCO1 (stereo not drawn)

>  <recorded_value>
> 36.8 µg/mL

$$$$

Exam item: Sample `O=C(NCCCn1ccnc1)c1ccc(-c2cccc(C(F)(F)F)c2)o1` — what was its solubility kinetic?
Marked response: > 54.5 µg/mL

Exam item: Can you look up the measured solubility kinetic of COc1cc(SC)ccc1C(=O)NC1CCCc2ccccc21 (stereo not drawn) for me?
Marked response: < 0.7 µg/mL

Exam item: Item `O=C(CSc1nnc(-c2ccccc2F)o1)NC1CC1` has what recorded solubility kinetic?
Marked response: > 44 µg/mL

###

conditions: buffer; pH 7.4; 200.0 µM
reported_metric: solubility kinetic

Consider the reported solubility kinetic for these molecules:
>  <smiles_notation>
O=C1NC(=O)/C(=C/c2cccc3ccccc23)S1

>  <solubility kinetic>
> 0.0383 mg/mL

$$$$
>  <smiles_notation>
O=c1[nH]c2ccsc2c(=O)n1CCO

>  <solubility kinetic>
> 0.0318 mg/mL

$$$$
>  <smiles_notation>
COc1ccc(C(=O)CCNc2ccc(F)cc2)cc1

>  <solubility kinetic>
< 0.0006 mg/mL

$$$$

Continue with the molecule presented below.
Exam item: Requested field: solubility kinetic. Item: `CC(=O)OCC[N+](C)(C)C.[Cl-]`
Marked response: > 0.0272 mg/mL

###

conditions: buffer; pH 7.4; 200.0 µM
Catalogue of compounds with associated solubility kinetic

Look over these answered cases.
>  <compound>
Nc1ccc(S(=O)(=O)[O-])c[nH+]1

>  <recorded_value>
> 26.1 µg/mL

$$$$
>  <compound>
COC(=O)c1ccc(S(=O)(=O)N2CCC(C(N)=O)CC2)n1C

>  <recorded_value>
> 49.4 µg/mL

$$$$
>  <compound>
CCCCN(C)CCNC(=O)C(NC(=O)C1CCC(C)CC1)C(C)C (stereo unspecified)

>  <recorded_value>
> 53 µg/mL

$$$$

Exam item: Find the recorded solubility kinetic belonging to `COc1ccc(C(=O)N(C)Cc2ccccc2F)cc1S(=O)(=O)N1CCCC1` and report it.
Marked response: > 61 µg/mL

Exam item: Entry `N#CCn1c(Cc2ccccc2)nc2ccccc2c1=O` has what solubility kinetic?
Marked response: > 41.3 µg/mL

Exam item: Need solubility kinetic of `CSc1nc2sc3c(c2c(=O)n1CC(C)C)CC(C)(C)OC3` , thanks.
Marked response: < 0.4 µg/mL

###

Overview of reported solubility kinetic across a group of compounds:
conditions: buffer; pH 7.4; 200.0 µM

# example entries with known answers
>  <compound>
CN(C)P(=O)(NC(=O)c1cccn1C)N(C)C

>  <reported_metric>
solubility kinetic

>  <recorded_value>
> 38.7 µg/mL

$$$$
>  <compound>
Cc1nn(C)cc1C(C)Nc1nc2nonc2nc1N1CCCCC1 (stereo not drawn)

>  <reported_metric>
solubility kinetic

>  <recorded_value>
> 51.4 µg/mL

$$$$

# input for lookup
Exam item: Need solubility kinetic, item CCN(C(=O)CSc1ncccn1)C1CCS(=O)(=O)C1 (stereo not drawn)
Marked response: > 47.3 µg/mL
